system: MDA-MB-231 breast; assay: NCI-60 one-dose screen, 48 h (100 = growth as untreated, 0 = no growth, -100 = all killed); details: 10 µM unless noted
Compounds without any hit were thinned out: in the full panel of roughly 83,000, 20% have a hit.

MOLECULE	growth (%)
Cc1cc(NC(=O)CNc2nc(Oc3ccc(F)cc3)nc(-c3ccc(F)cc3)n2)ccc1Cl	106
O=CN1N=C(c2ccc3c(c2)OCO3)CC1c1cccc(Nc2ccnc3cc(C(F)(F)F)ccc23)c1 (stereo unspecified)	78.2
CCOC(=O)NCCc1nc2c([nH]1)c(=O)n(C)c(=O)n2C	105
NCCN1CCNCC1	105
CC(C)(C)c1ccc(O)c(Cc2cc(C(C)(C)C)ccc2O)c1	88.1
O=C1[C@@H](OS(=O)(=O)CC(F)(F)F)[C@H](c2ccc(F)cn2)N1c1cc2c3ccccc3ccc2c2ccccc12	71.2
Cc1ccc(C2CC(c3ccc(Nc4nc(NCCO)nc(NCCO)n4)cc3)=NN2c2ccc(Cl)cc2)cc1 (stereo unspecified)	66.9
Cc1ccc2nc3nc4ccc[nH]c4cc3c2c1	70.3
CCCCC1=c2c([nH]c3ccc(OC)cc23)=NC2C=CC=NC12 (stereo unspecified)	79.9
COc1ccc2nc(-c3ccc(Cl)cc3)cc(-c3nnc(SC/C(=N/O)c4ccccc4)o3)c2c1	49.6
Cc1ccc(C(=O)/C(=C/c2ccc([N+](=O)[O-])cc2)S(=O)Cc2ccccc2)cc1 (stereo unspecified)	-2.07
